# system.tested: Bcl-xL, Q07817
# Sequence (Q07817 1-209): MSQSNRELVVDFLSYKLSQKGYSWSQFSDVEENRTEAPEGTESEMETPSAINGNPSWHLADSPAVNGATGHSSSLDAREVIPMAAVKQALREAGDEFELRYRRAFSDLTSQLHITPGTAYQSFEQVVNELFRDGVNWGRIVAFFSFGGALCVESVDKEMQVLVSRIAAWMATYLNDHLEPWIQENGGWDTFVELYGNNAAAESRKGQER
# test.protocol: peptide SPOT array, c-Myc-tagged receptor at 1 uM or 100 nM, anti-c-Myc-Cy3
quantity: SPOT signal as a fraction of Bim BH3's signal on the same receptor and array
One number for each entry.

Lab note: each binder below needs its SPOT signal as a fraction of Bim BH3's signal on the same receptor and array filled in.
1. ERLKGQLCDVDLIVGDQKFRAHKNVL [ZNF295]
2. QAGPVSSGLALRKLLDRVQLLNLLVT [CCDC57]
3. SSLSDGLPVHLANIADELTQKKKMFK [AGBL2]
4. RAKASSLSEELKHFADGLETDGTLQK [DSN1]
5. NGGLLEFHKSLQEIGDKNDHWFDIDP [DZIP3]

Result:
0.16
0.74
0.25
0.07
0.11

Lab note: each binder below needs its SPOT signal as a fraction of Bim BH3's signal on the same receptor and array filled in.
1. VIKQRRLPDQDSKLADRIQLSGRYYL [RAPGEF2]
2. YFKLFRASGDDRTNGDNYLYEIQLSS [IGF2R]

Result:
1. 1.24
2. 0.25

The reported measurements were obtained from paper PMC4072508.
